selectivity ratio values by entry
test: Selectivity index, ratio of IC50 for HUVEC in presence of light irradiation to IC50 for human MDA-MB-231 cells in presence of light irradiation; assay type: toxicity; conditions: HUVEC and MDA-MB-231 cells, read-out: Ratio IC50
No unit in the answer, please; the number alone is enough.

Known selectivity ratio results, listed for orientation:
[[record]]
compound = "Oc1cccc(-c2c3nc(c(-c4cccc(O)c4)c4ccc([nH]4)c(-c4cccc(O)c4)c4nc(c(-c5cccc(O)c5)c5ccc2[nH]5)CC4)C=C3)c1 [TEMOPORFIN]"
obs_value = 1.72

[[record]]
compound = "Oc1cccc(-c2c3nc(c(-c4c(F)c(F)c(F)c(F)c4F)c4ccc([nH]4)c4ccc([nH]4)c(-c4c(F)c(F)c(F)c(F)c4F)c4ccc2[nH]4)C=C3)c1"
obs_value = 0.54

[[record]]
compound = "Oc1ccccc1-c1c2nc(c(-c3c(F)c(F)c(F)c(F)c3F)c3ccc([nH]3)c3ccc([nH]3)c(-c3c(F)c(F)c(F)c(F)c3F)c3ccc1[nH]3)C=C2"
obs_value = 0.82


Here is another compound to look at.
Given item `Oc1ccc(-c2c3nc(c(-c4c(F)c(F)c(F)c(F)c4F)c4ccc([nH]4)c4ccc([nH]4)c(-c4c(F)c(F)c(F)c(F)c4F)c4ccc2[nH]4)C=C3)cc1` , the value recorded as its selectivity ratio is 22.2
